These data points were gathered from patent US20140287419A1.

# assay-procedure: 14C assay with IPTG-induced recombinant E. coli cells (14CO2 capture from [14C]-carboxyl-labeled dicamba)
# experimental-context: IPTG-induced recombinant E. coli cells; [14C]-carboxyl-labeled dicamba; 14CO2 capture
quantity: Dicamba Decarboxylase Activity

molecule	observed-value
36 (protein, listed as Agrobacterium sp.) MAQGKVALEEHFAIPETLQDSAGFVPGDYWTELQHRLLDIQDTRLKLMDAHGIETMILSLNAPAVQAIPDKTKAIEIARRANDALAEECAKRPNRFLAFAALPLQDPDAATQELQRCVNDLGFVGALVNGFSQEGDGQIPLYYDLPQYRPFWGEVEKLDVPFYLHPRNPLPQDSRIYDGHPWLLGPTWAFAQETAVHALRLMASGLFDEHPRLNIILGHMGEGLPYMMWRIDHRNAWVKLPPRYPAKRRFVDYFNENFHITTSGNFRTQTLIDAILEIGADRILFSTDWPFENIDHASDWFHATSIAEADRVKIGRTNARRLFKLDGR	High
34 (protein, Cupriavidus necator) MAQGKIGLEEHFAIPETLNDSAGFVPGDYWKELSRRLLDIQDDRLRQMDENGMEMMLLSLNAPAVQAVPDRKQACELAVRANDFLAEQVSRRPDRFQALAALPLQDPDFATVELTRCVNELGMRGALVNGFSQIDTPDNVVYYDAPQYASFWAAVEKLDVPFYLHPRNPIASWAQIYDGHPWLLGPTWAFGQETAVHALRLMASGLFDRHPALQIVLGHLGEGLPYSLWRIDNRNAWVKAPKTHPAKKTFRHYFQQNFHLTTSGNFHNQTLIDAILEIGADRILFSTDWPFENIDHAAKWFDSASISEADRTKIGRTNAMKLFKLVA	High
60 (protein, listed as Catenulispora acidiphila) MARGFVRTAVVPGFWDAGWRGAGQPGGMRVDVHAHLFPAAYLDLLDDFRQDGGVGTREVRALGGGDGERELRLRLAAMDAVGVDVQLLSTCPQGPYTGDPTAAVEAARCANVALAQTVAQYPERLRALAALPLPHILASVDELNRAMEQDGMLGAAVGTSILGRPLSHPDFEPLFAALNRRKGVLFVHPIGESAGSPLMQASKLDRVIGYAAEVSTAILQLFQAGLTVKYPDIRIIAPHMGGYLPFLIQRLDRHRDWYLPKDAPSAGQLMRGIAYDTANPLPAALRLTAEVVGPERLLLGTDYPFEQGPSLRDHIEYILAAGLPEAQAKMIVDVNAADFLDMRSGAEQPPV	No
27 (protein, listed as Aspergillus oryzae) MALGKIALEEAFALPRFEEKTRWWASLFSTDAETHVKEITDINKIRIEHADKHGVGYQILSYTAPGVQDIWDPVEAQALAVEINDYIAEQVRVNPDRFGAFATLSMHNPKEAADELRRCVEKYGFKGALVNDTQRAGPDGDDMIFYDNADWDIFWQTCTELDVPFYMHPRNPTGTIYEKLWADRKWLVGPPLSFAHGVSLHVLGMVTNGVFDRHPKLQIIMGHLGEHVPFDMWRINHWFEDRKKLLGLAETCKKTIRDYFAENIWITTSGHFSTTTLNFCMAEVGSDRILFSIDYPFETFSDACEWFDNAELNGTDRLKIGRENAKKLFKLDSYKDSSA	No
77 (protein, Burkholderia xenovorans) MALIDLHAHAPHPGYYNQHPHWGPFFERHEDGDVKLRVGDWILTLGSPERKALVRAGKGPTVEEYQARWADPKVRLAGMDAAGQNAQVVSVPSHCYMYWAEKEFSVPFATKVNDTFAEYCSAAPDRLMFWAHAALNAPEQAALELRRACTELGAKGLVAGGANFGGLEFDSPELDPVWKVLCDLDLPMFIHGYNQSVTWGKKANDDRYETTAIVGMQYDETRCFWNLVCGGVLDRFPGLKVYITHGGGYVPYQLGRLAQCNGNLDVAHNKKPVLEYLKNNFYFDVELHEVPMRQALIDIIGADRVLYGSNFGGSDAVRHDLTEGLRLSDDDLQKIRWKNACKLLHLDPAKIGEPAKKQAVSA	No
55 (protein, listed as Serratia sp.) MAKIICLEEHTLDKALVMASMPAALEQAPFLSDWGKTVTDGNLPDRSRPQIEKNDLINIKGADIGRGRLDDMDVAGITMQVLSVGGFPHLISAAEGVDLNRAANDRLADAVNAHPDRFAAFATLPWAQPDSAEKELERAVKELGFKGALLNGRPSTHFLDHPDYDGLLARFNALGVPLYLHPGLPVRSVQQAYYGGFSDEVTARLSMFGWGWHHEAGIHLLRLILSGAFDKYPNLQVISGHWGEMLPFWLQRLDDSLPQAATGLRRTIAQTFKEQVYVTPSGMLTLPHFQFIYALLGAERIIFSVDYPYQTLDGVKAFIQSLPVPEEAKEAIAFRNAERLLGLTS	High
24 (protein, Aspergillus niger) MALGKVVLEEAYERPNMKEKSNHEAGLYIAPNDRPRYMRQINDINQERLKLADAHGVGYTIISLTVPGIQGIFDKTEAERVATETNNWAAEQIKNHRDRLGAFACLSMHDPAQAANELRRCVQELGFHGALLCSFQHAGPDGETYLFYDQPKYDVFWKALTELDVPLYIHPAAPTGSILERLYAQRPALIGPPLSFANDVSLHTLGIISNGVFDRFPNLKIIIGHLGEHIPFDFWRIDHWFRDVKKPIADEEGRVMAQKSLYHYFKHNIWLTTSGHFSTPTLKYVVNEIGVDRVLFSVDYPYETTESGCNWWDHDKDAIVEAVGGVDNYYAIGRENAKKLLRLDKFHDSDAR	Low
